Tested on: SC27B
Test: qHTS profiling for inhibitors of Plasmodium falciparum proliferation (AID 504749); note: nearly all actives have a fitted effect of over 60% in size
Conditions: P. falciparum in erythrocytes, SYBR Green DNA, 72 h; series mostly up to 28.7 µM
Experimental: NIH National Institute of Allergy and Infectious Diseases [NIAID] NIH Chemical Genomics Center [NCGC] […] Because mature erythrocytes lack DNA, only Plasmodium-derived DNA is detected. NCGC Assay Protocol Summary: The SYBR Green viability assay was adapted from a method described previously (Plouffe et al., 2008). […] The following morning, fluorescence intensity at 485(14) nm excitation and 535(25) nm emission wavelengths was measured on an EnVision (Perkin Elmer) plate reader. […]
Records with an inconclusive call do not appear. Activity calls are given as the source filed them. Calls come from the whole dose curve; as a rule, active = well fitted inhibition curve with a large enough effect; inconclusive = small, poorly fitted or top-dose-only effect; inactive = flat fitted curve, though single readings scatter.
Allowed answers: active, inactive

Study these solved cases before continuing.
* COC(=O)C1=C(C)NC(C)=C(C(=O)OCCN2CCN(C(c3ccccc3)c3ccccc3)CC2)C1c1cccc([N+](=O)[O-])c1 (stereo unspecified) | active
* O=c1[nH]c(=O)n(C2CCCO2)cc1F (stereo unspecified) | inactive
* CN1c2cc(O)c(N=NC(N)=O)cc2CC1S(=O)(=O)O (stereo unspecified) | inactive

**Q:** Could you please tell me the result logged for `Nc1ccn([C@@H]2CS[C@H](CO)O2)c(=O)n1` in this assay?
**A:** inactive

**Q:** Please give the result for `COc1c(N2C[C@@H]3CCCN[C@H]3C2)c(F)cc2c(=O)c(C(=O)O)cn(C3CC3)c12` too.
**A:** inactive

**Q:** Then `Nc1ccn([C@@H]2O[C@H](CO)[C@H](O)C2(F)F)c(=O)n1` ?
**A:** active

* * *

experiment: qHTS Screen of the MIPE 4.0 Collection Against Ewings Sarcoma (RDES) (AID 1259252); settings: RD-ES Ewing sarcoma viability, CellTiter-Glo, 48 h; series mostly up to 45.8 µM; note: nearly all actives have a fitted effect of over 35% in size; note: potency is the fitted concentration of half-maximal effect
Results filed as inconclusive are left out. The source made the active and inactive calls. Calls come from the whole dose curve; as a rule, active = well fitted inhibition curve with a large enough effect; inconclusive = small, poorly fitted or top-dose-only effect; inactive = no such curve, though single readings can be large or run the other way.
READOUT: Potency

Below are worked cases with known answers.
- O=C(O)Cn1nnc(-c2cc(N3CCC(Oc4cc(F)ccc4Br)CC3)no2)n1: inactive
- O=C(O)CO.[NH2-].[NH2-].[Pt+2]: inactive
- C=CC(=O)Nc1cc2c(Nc3ccc(F)c(Cl)c3)ncnc2cc1OCCCN1CCOCC1: 20.9 µM (active)
- O=C(Cc1ccc(-c2ccc(OCCN3CCOCC3)cc2)cn1)NCc1ccccc1: 0.0235 µM (active)
- Cc1c(CN2CCN(S(C)(=O)=O)CC2)sc2c(N3CCOCC3)nc(-c3cnc(N)nc3)nc12: 0.059 µM (active)

Below are some molecules; for each one, tell me its Potency.
1. Cn1cncc1[C@@](N)(c1ccc(Cl)cc1)c1ccc2c(c1)c(-c1cccc(Cl)c1)cc(=O)n2C
2. CCCCCCCCCC(=O)N[C@@H](Cc1c[nH]c2ccccc12)C(=O)N[C@H](CC(N)=O)C(=O)N[C@@H](CC(=O)O)C(=O)N[C@@H]1C(=O)NCC(=O)N[C@@H](CCCN)C(=O)N[C@@H](CC(=O)O)C(=O)N[C@H](C)C(=O)N[C@@H](CC(=O)O)C(=O)NCC(=O)N[C@H](CO)C(=O)N[C@@H]([C@@H](C)CC(=O)O)C(=O)N[C@@H](CC(=O)c2ccccc2N)C(=O)O[C@@H]1C
3. CN1CCN(c2ccc3nc(-c4c(N)c5c(F)cccc5[nH]c4=O)[nH]c3c2)CC1
4. CS(=O)(=O)N1CCN(Cc2cc3nc(-c4cccc5[nH]ncc45)nc(N4CCOCC4)c3s2)CC1

**A:**
1. 7.43 µM (active)
2. inactive
3. 14.8 µM (active)
4. 1.18 µM (active)

# batch size: 7; output Potency per entry
1. CC[C@@H]1C(=O)N(C)c2cnc(Nc3ccc(C(=O)NC4CCN(C)CC4)cc3OC)nc2N1C1CCCC1
2. Nc1ncnc2c1c(-c1cccc(OCc3ccccc3)c1)cn2C1CC(CN2CCCC2)C1 (stereo unspecified)
3. CC(C)c1cnn2c(NCc3ccccc3)cc(N[C@@H](CO)[C@H](O)CO)nc12
4. COc1cc2c(cc1-c1c(C)noc1C)ncc1[nH]c(=O)n([C@H](C)c3ccccn3)c12
5. C=CC(=O)Nc1cc2c(Nc3ccc(F)c(Cl)c3)ncnc2cc1C#CC(C)(C)N1CCN(C)CC1
6. CCc1cc2c(cc1N1CCC(N3CCOCC3)CC1)C(C)(C)c1[nH]c3cc(C#N)ccc3c1C2=O
7. C=CCn1c(=O)c2cnc(Nc3ccc(N4CCN(C)CC4)cc3)nc2n1-c1cccc(C(C)(C)O)n1

**A:**
1. 0.0662 µM (active)
2. 23.5 µM (active)
3. 0.469 µM (active)
4. 6.62 µM (active)
5. 1.87 µM (active)
6. inactive
7. 0.264 µM (active)

* * *

test: P-glycoprotein substrates identified in KB-8-5-11 adenocarcinoma cell line, qHTS therapeutic library screen (AID 1346987); settings: KB-8-5-11 (P-gp overexpressing) viability, CellTiter-Glo, 72 h; series mostly up to 44.5 µM; note: nearly all actives have a fitted effect of over 65% in size
Records with an inconclusive call do not appear. The source made the active and inactive calls. The call rests on the fitted dose curve; in most records, active means well fitted inhibition curve with a large enough effect; inconclusive means small, poorly fitted or top-dose-only effect; inactive means flat fitted curve, though single readings scatter.
Pick one and only one: true for active, false for inactive

See these solved cases before continuing.
* Cc1cn2c(-c3cn[nH]c3)cnc2c(Nc2ccc(C(=O)N3CCNCC3)cc2F)n1 | false
* CC(C)Nc1cc(C(F)(F)F)cc2nc(NC(=O)c3cccnc3)nn12 | false
* O=C(O)C1(Cc2cccc(Nc3nccs3)n2)CCC(Oc2cccc(Cl)c2F)CC1 (centres undefined) | true
* COc1cc2c(Oc3ccc(-c4cnc(Nc5ccc(F)cc5)n(C)c4=O)cc3F)ccnc2cc1OCCCN1CCOCC1 | true
* O=C(C=Cc1cccc(S(=O)(=O)Nc2ccccc2)c1)NO | true

**Q:** Call for entry `COC(=O)[C@]12CCC(C)(C)C[C@@H]1[C@@H]1C(=O)C=C3[C@@]4(C)C=C(C#N)C(=O)C(C)(C)[C@@H]4CC[C@@]3(C)[C@]1(C)CC2` :
**A:** true

**Q:** Next: `O=C(O)CCCc1c[nH]c2ccccc12`
**A:** false

**Q:** Same again, this time with `CC(=O)SC[C@@H](C)C(=O)N1CCC[C@H]1C(=O)N[C@@H](Cc1ccccc1)C(=O)O`
**A:** false

**Q:** Then what about the molecule `O=C(C=Cc1c(C(=O)O)[nH]c2cc(Cl)cc(Cl)c12)Nc1ccccc1` ?
**A:** false

* * *

test system: CP238; assay: qHTS profiling for inhibitors of Plasmodium falciparum proliferation (AID 504749); note: nearly all actives have a fitted effect of over 60% in size; conditions: P. falciparum in erythrocytes, SYBR Green DNA, 72 h; series mostly up to 28.7 µM
Results filed as inconclusive are left out. Activity calls are given as the source filed them. The call rests on the fitted dose curve; in most records, active means well fitted inhibition curve with a large enough effect; inconclusive means small, poorly fitted or top-dose-only effect; inactive means flat fitted curve, though single readings scatter.
Form entry, call: pick from True (active), False (inactive)

**Q:** Hello, I am checking results. What call was entered for `Nc1ccn([C@@H]2O[C@H](CO)[C@H](O)C2(F)F)c(=O)n1` ?
**A:** True

**Q:** Would you kindly repeat that for `C[C@H]1C[C@@H]2[C@@H]([C@@H](O)C[C@@]3(C)[C@H]2CC[C@]3(O)C(=O)CO)[C@@]2(C)C=CC(=O)C=C12` ?
**A:** False

* * *

assay: High-throughput drug toxicity screening in the BPDCN cell line Cal-1 (AID 1224825); conditions: Cal-1 BPDCN cell viability, qHTS; at 45.8 µM (top of the series) unless noted;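 note: cells exposed to compounds for 48 h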
Exam item: assign Condition met to entries whose viability (% of control) is below 4% and Condition not met to entries at or above 4%. Note that a value of exactly 4% receives Condition not met.

- C[C@@H](Oc1cc(-c2cnn(C3CCNCC3)c2)cnc1N)c1c(Cl)ccc(F)c1Cl: Condition met

**Q:** Is viability (% of control) strictly under 4% for the entry `Nc1nc(Nc2ccc(S(N)(=O)=O)cc2)nn1C(=O)c1c(F)cccc1F` ?
**A:** Condition not met

**Q:** Now give it for `N#CCNC(=O)c1ccc(-c2ccnc(Nc3ccc(N4CCOCC4)cc3)n2)cc1` too.
**A:** Condition not met

**Q:** Consider next the molecule `O=C(C=Cc1c(C(=O)O)[nH]c2cc(Cl)cc(Cl)c12)Nc1ccccc1` in the same way.
**A:** Condition not met

**Q:** Moving on to `O=C(NCCCNc1nc(Nc2cccc(NC(=O)N3CCCC3)c2)ncc1I)c1cccs1`
**A:** Condition met

**Q:** Another molecule to check: `Nc1cc(C(F)(F)F)c(-c2cc(N3CCOCC3)nc(N3CCOCC3)n2)cn1`
**A:** Condition not met

**Q:** Now this one: `O=C(Cc1ccc(-c2ccc(OCCN3CCOCC3)cc2)cn1)NCc1ccccc1`
**A:** Condition not met

**Q:** Could you do the same for `Cc1cc(Nc2cc(N3CCN(C)CC3)nc(Sc3ccc(NC(=O)C4CC4)cc3)n2)n[nH]1` , please?
**A:** Condition not met

**Q:** Also `CNc1nccc(-c2cccnc2Oc2cc(C(=O)Nc3cccc(C(F)(F)F)c3)ccc2C)n1` ?
**A:** Condition not met

**Q:** Now the same for `CCOc1cc2ncc(C#N)c(Nc3ccc(F)c(Cl)c3)c2cc1NC(=O)C=CCN(C)C`
**A:** Condition not met

**Q:** Next molecule up: `Nc1nccc(Oc2ccc(NC(=O)c3c[nH]cc(-c4ccc(F)cc4)c3=O)cc2F)c1Cl`
**A:** Condition not met

**Q:** Same thing, different molecule: `O=C(Nc1cn[nH]c1-c1nc2ccc(CN3CCOCC3)cc2[nH]1)NC1CC1`
**A:** Condition met

**Q:** Subsequent entry: `COC(=O)[C@]12CCC(C)(C)C[C@@H]1[C@@H]1C(=O)C=C3[C@@]4(C)C=C(C#N)C(=O)C(C)(C)[C@@H]4CC[C@@]3(C)[C@]1(C)CC2`
**A:** Condition met

**Q:** Next molecule: `COc1cc2c(Oc3ccc(NC(=O)C4(C(=O)Nc5ccc(F)cc5)CC4)cc3F)ccnc2cc1OCCCN1CCOCC1`
**A:** Condition not met

**Q:** Likewise for `COc1cc2nccc(Oc3ccc(NC(=O)C4(C(=O)Nc5ccc(F)cc5)CC4)cc3)c2cc1OC` ?
**A:** Condition not met

**Q:** Now give it for `COc1cc2c(Nc3ccc(NC(=O)c4ccccc4)cc3)ncnc2cc1OCCCN1CCOCC1` too.
**A:** Condition met

**Q:** Also `COc1ccc(-n2nc(C(N)=O)c3c2C(=O)N(c2ccc(N4CCCCC4=O)cc2)CC3)cc1` , if possible.
**A:** Condition not met

**Q:** Same for `COc1cc(=C2C=c3ccccc3=N2)[nH]c1=Cc1[nH]c(C)cc1C`
**A:** Condition met

**Q:** Next molecule: `CCS(=O)(=O)c1cccc(-c2cc(C(=O)NC3CCN(C)CC3)c(C)c3[nH]c4ncc(C)cc4c23)c1`
**A:** Condition met
